Taken from paper PMC2756588.

Biological target: T1, Cdc25, P04821
T1 sequence (P04821 50-136, looked up): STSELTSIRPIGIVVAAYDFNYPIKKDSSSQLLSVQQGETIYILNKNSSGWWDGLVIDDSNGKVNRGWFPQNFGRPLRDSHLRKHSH
Assay: SPOT array
Conditions: median of control spots 969
quantityName: SPOT intensity

binder	SPOT intensity
DKKTKPTPPPKPSHL	1
IVNKPLPPLPVAGSS	0
QPQRTAPKPPISAPR	3

[1] RTIRKLPLMSLSEYF
[2] FFRRSELYLPNSSKA
q: # compare SPOT intensity for 1 vs 2 ; return the one with the smaller value // caller expects the label of the chosen entry
a: 1
(1: 6, 2: 115)

[1] TPRLSLPRLPNKHHW
[2] DGNEEKPLLPTRPNK
q: Select one: 1 or 2 . Criterion: greater recorded SPOT intensity. // caller expects the label of the chosen entry
a: 1

[a] NMLKKKPLKKPLKRF
[b] FTLPPPPPPPGLDEL
q: Select one: a or b . Criterion: greater recorded SPOT intensity. // caller expects the label of the chosen entry
a: a
